# system: Human recombinant PDE4 (Genbank accession no NM—006203) (Homo sapiens)
# Sequence (Q08499 1-673 isoform Q08499-2): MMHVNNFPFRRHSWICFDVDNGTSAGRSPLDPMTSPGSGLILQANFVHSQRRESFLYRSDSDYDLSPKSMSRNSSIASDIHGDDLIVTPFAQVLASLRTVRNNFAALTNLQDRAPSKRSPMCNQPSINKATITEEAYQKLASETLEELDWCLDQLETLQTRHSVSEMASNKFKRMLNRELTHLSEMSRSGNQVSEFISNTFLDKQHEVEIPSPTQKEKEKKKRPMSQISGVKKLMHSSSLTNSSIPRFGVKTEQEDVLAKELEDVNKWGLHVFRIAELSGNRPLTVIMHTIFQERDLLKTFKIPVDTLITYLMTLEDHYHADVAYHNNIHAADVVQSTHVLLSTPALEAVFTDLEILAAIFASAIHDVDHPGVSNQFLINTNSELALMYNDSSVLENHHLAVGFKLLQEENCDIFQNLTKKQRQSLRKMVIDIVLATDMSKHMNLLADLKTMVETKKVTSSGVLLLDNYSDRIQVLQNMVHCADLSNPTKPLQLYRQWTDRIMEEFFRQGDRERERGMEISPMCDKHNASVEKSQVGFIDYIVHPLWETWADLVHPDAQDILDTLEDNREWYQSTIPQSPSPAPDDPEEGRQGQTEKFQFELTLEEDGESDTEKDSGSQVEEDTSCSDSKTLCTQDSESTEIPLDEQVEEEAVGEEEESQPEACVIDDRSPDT
# procedure text: PDE4 assay (SPA, cleavage of cAMP)
# details: 1 hour incubation, test compound up to 10 μM, cAMP 1×10^−5M, read-out: PDE4 IC50 range
pIC50: −log10 of the molar value.
measured metric: pIC50

{"structure as smiles": "CCNC(=O)OCC1(COc2c(-c3cccc4c3CCC4=O)ccc(OC)c2OC)COC1", "system": "Human recombinant PDE4 (Genbank accession no NM—006203) (Homo sapiens)", "result": "> 7.00"}
{"structure as smiles": "COc1ccc(-c2ccc3c(c2)CNC3=O)c(OCC2(CO)COC2)c1OC", "system": "Human recombinant PDE4 (Genbank accession no NM—006203) (Homo sapiens)", "result": "6.30 to 7.00"}
{"structure as smiles": "CNC(=O)C(C)(C)COc1c(-c2cccc3c2CCC3=O)ccc(OC)c1OC", "system": "Human recombinant PDE4 (Genbank accession no NM—006203) (Homo sapiens)", "result": "> 7.00"}
{"structure as smiles": "COc1ccc(-c2ccc3c(c2)CN(C)C3=O)c(OCC(C)C)c1OC", "system": "Human recombinant PDE4 (Genbank accession no NM—006203) (Homo sapiens)", "result": "≤ 6.30"}
{"structure as smiles": "COc1ccc(-c2cccc3c2CCC3=O)c(OCc2cccc(S(=O)(=O)N(C)C)c2)c1OC", "system": "Human recombinant PDE4 (Genbank accession no NM—006203) (Homo sapiens)", "result": "> 7.00"}
{"structure as smiles": "COc1ccc(-c2cccc3c2COC3=O)c(OCc2ccc(S(C)(=O)=O)cc2)c1OC", "system": "Human recombinant PDE4 (Genbank accession no NM—006203) (Homo sapiens)", "result": "> 7.00"}
{"structure as smiles": "COc1ccc(-c2ccc3c(c2)CCC3=O)c(OCC(C)C)c1OC", "system": "Human recombinant PDE4 (Genbank accession no NM—006203) (Homo sapiens)", "result": "> 7.00"}
{"structure as smiles": "COc1ccc(-c2ccc3c(c2)CCC3=O)c(OCC(C)(C)C(=O)NC(C)C)c1OC", "system": "Human recombinant PDE4 (Genbank accession no NM—006203) (Homo sapiens)", "result": "≤ 6.30"}
